- TEST DESCRIPTION: Half life in golden hamster at 100 mg/kg, po measured upto 24 hrs by LC/MS-MS analysis
- Type: ADME, organism-based, Mesocricetus auratus
- TEST CONDITIONS: in vivo
RECORDED ENDPOINT: half-life (h)
Your answer is read as h, so omit the unit and give the number.

Enquiry: Which half-life reading was recorded for the compound COC(=O)c1c(NCc2ccc(C(C)(C)C)cc2)noc1-c1cc2c(cc1[N+](=O)[O-])OCO2 ?
Return: 3.78

###

- TEST DESCRIPTION: Selectivity index, ratio of CC50 for mouse J774.A1 cells to IC50 for amastigote form of Leishmania donovani MHOM/IN/80/Dd8
- Assay type: toxicity
- TEST CONDITIONS: read-out: Ratio CC50/IC50
Items are presented alongside their recorded selectivity ratio.
Please give only the number in your answer, with no unit.

Solved entries:
COC(=O)c1c(NCc2ccccc2)noc1-c1ccc([N+](=O)[O-])cc1: 6.16
COC(=O)c1c(NCCCNc2ccnc3cc(Cl)ccc23)noc1-c1cc2c(cc1[N+](=O)[O-])OCO2: 4.55
CCCNC(=O)c1c([N+](=O)[O-])noc1-c1ccc([N+](=O)[O-])cc1: 3.57
CCN(CC)CCNc1noc(-c2ccc([N+](=O)[O-])cc2)c1C(=O)OC: 8.49

For the next question, use this molecule.
Enquiry: Which selectivity ratio reading was recorded for the molecule COC(=O)c1c(NCc2ccc(Cl)cc2)noc1-c1ccc([N+](=O)[O-])cc1 ?
Return: 9.93

###

- Tested on: Leishmania amazonensis
- TEST DESCRIPTION: Antileishmanial activity against intracellular amastigote stage of Leishmania amazonensis (IFLA/BR/1967/PH8 strain) assessed as reduction in parasite viability incubated for 24 hrs by Neubauer chamber cell counting method
- Format: functional, organism-based
- TEST CONDITIONS: IFLA/BR/1967/PH8, 24 h
RECORDED ENDPOINT: IC50 (nM)
Your answer is read as nM, so omit the unit and give the number.

Enquiry: Which IC50 reading was recorded for the molecule O=[N+]([O-])c1ccc(-c2cc(-c3ccc(CCl)cc3)on2)o1 ?
Return: 600

###

Items are presented alongside their recorded selectivity ratio.
- TEST DESCRIPTION: Selectivity index, ratio of CC50 for mouse J774.A1 cells to IC50 for amastigote form of Leishmania donovani MHOM/IN/80/Dd8
- Format: toxicity
- TEST CONDITIONS: read-out: Ratio CC50/IC50

O=C(NCc1ccc(F)cc1)c1c([N+](=O)[O-])noc1-c1ccc(Cl)cc1Cl: 1.7
O=C(NCc1cccc(Br)c1)c1c([N+](=O)[O-])noc1-c1ccc(Cl)cc1Cl: 9.19

For the next question, use this compound.
Enquiry: Which selectivity ratio reading was recorded for the compound COC(=O)c1c(NCCCN2CCOCC2)noc1-c1ccc(Cl)cc1Cl ?
Return: 3.44

###

- TEST DESCRIPTION: Selectivity index, ratio of CC50 for mouse J774.A1 cells to IC50 for amastigote form of Leishmania donovani MHOM/IN/80/Dd8
- Format: toxicity
- TEST CONDITIONS: read-out: Ratio CC50/IC50
Items are presented alongside their recorded selectivity ratio.
Please give only the number in your answer, with no unit.

Enquiry: Which selectivity ratio reading was recorded for the compound O=C(NCCN1CCOCC1)c1c([N+](=O)[O-])noc1-c1ccc([N+](=O)[O-])cc1 ?
Return: 3.49
